assayed.target: T1, CsbD, tip adhesin of CS17 fimbriae on wild type ETEC strain WS6788A (Escherichia coli (ETEC) strain WS6788A)
T1 chain: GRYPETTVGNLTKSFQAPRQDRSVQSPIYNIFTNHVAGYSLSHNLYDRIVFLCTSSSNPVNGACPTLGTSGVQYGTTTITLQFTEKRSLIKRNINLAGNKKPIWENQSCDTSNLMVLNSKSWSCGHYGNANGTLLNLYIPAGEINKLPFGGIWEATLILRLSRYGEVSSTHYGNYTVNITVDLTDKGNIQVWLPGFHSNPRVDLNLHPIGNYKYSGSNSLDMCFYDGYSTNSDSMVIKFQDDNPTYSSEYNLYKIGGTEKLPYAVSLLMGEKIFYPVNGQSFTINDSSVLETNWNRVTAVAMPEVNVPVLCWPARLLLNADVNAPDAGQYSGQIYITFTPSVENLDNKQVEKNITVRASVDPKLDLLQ
assay.notes: cell-based or functional assay
measure.name: MIC in HAI (µg/mL)
API: value field is a number in µg/mL; no unit string.

Below, 2 binders whose answers are already recorded.
| binder | experimental.result |
| --- | --- |
| anti-CsbD mouse mAb P9A5 (antibody, V domains shown, Isotype n.d) VH: EVQLQQFGAEVVKPGASVKISCKASGYTFTDYNIDWVKQSHGESLEWIGDISPNSEGTTYNQKFKGQATLTIDKSSTTAYMELRSLTSEDSAVYYCARGSGIWNGLDYWGQGTSVTVSS VL: DIVMTQSHKFMSTSVGDRVSITCKASQDVSTAVAWYQQKPGQSPQLLIYSSSYRYVGVPDRFTGSGSGTDFTFTISSVQAEDLAVYYCHQHYSLPYTFGGGTKLEIK | 4 |
| anti-CfaE mouse mAb P5C7 (antibody, V domains shown) VH: QIQLVQSGPELKKPGETVKISCKASGYTFTNYGMNWVKQAPGKGLKWMGWINTYTGEPTYTDDFKGRFAFSLETSASTAYLQINSLKTEDTATYFCARMEYGNYENAMDSWGQGTSVTVSS VL: DTVMTQSHKFMSTSVGDRVSITCKASQDVSTAVVWYQQKPGQSPKLLIYSASYRYTGVPDRFTGSGSGTDFTFTISSVQAEDLAVYYCLQHFNIPRTFGGGTKLEIK | 16 |

Task: Please look at this binder and report its MIC in HAI: anti-CsbD mouse mAb P7C2 (antibody, V domains shown) VH: EVKLEESGGGLVQPGGSMKLSCAASGFTFSDAWMDWVRQSPEKGLEWVGKIRSEINDHATYYAESVKGRFTISRDDSKSGVYLQMNNLRAEDTGIYYCARDGYYGAMDYWGQGTSVTVSS VL: DVQITQSPSYLAASPGETITINCRSNKSISRYLAWYQEKPGKTNKLLIYSGSTLQSGIPSRFSGSGSNTDFTLTISSLEPEDFAMYYCQQHNEYPYTFGSGTKLEIK
Output: 1
